# Test system: Oryza sativa
# method: Test of plant growth inhibiting action on sprouted seeds grown 7 days in a dispersion of wettable powder, visual evaluation
# Assay type: in vivo
# experimentalSetup: 168 h, Concentration 20 ppm, 20% wettable powder dispersed in water, 25°C, lighted thermostat, visual grade 1-5, read-out: Growth Inhibition, Seed of Plant Oryza sativa (converted)

molecule: C=C(COc1ccc(F)cc1)C(=O)OC [Compound 4-15]
inhibition at 20 ppm (%): 50

molecule: C=C(COc1cccc2c1CCCC2)C(=O)OC [Compound 4-17]
inhibition at 20 ppm (%): 75

molecule: C=C(COc1ccc(-c2ccccc2)cc1)C(=O)OC [Compound 4-13]
inhibition at 20 ppm (%): 0

molecule: C=C(COc1cccc(Cl)c1)C(=O)OC [Compound 4-14]
inhibition at 20 ppm (%): 100

molecule: C=C(COc1ccc(C)cc1)C(=O)OC [Compound 4-18]
inhibition at 20 ppm (%): 75
